Tested on: SR
Assay Text: NCI tumour cell line growth inhibition, 48 h
The source made the active and inactive calls. No stated cut-off is given here; in the data, active = GI50 up to about 1.1 µM and inactive = higher.
Classes used: active, inactive

Compound	Tested System	Assigned Class
COc1ccc(NC(=S)c2ccc([N+](=O)[O-])o2)cc1	SR	active
CCCc1c(O)nc2ccccc2c1O	SR	inactive
COc1cc(C2SC(=N)Nc3c2c(C)nn3C(=O)Cc2ccccc2)cc(OC)c1OC (stereo unspecified)	SR	inactive
CC(C)c1cccc(C(C)C)c1NC1=CC(=O)C(=O)c2ccccc21	SR	inactive
COc1cc2c(cc1C)NC(=O)/C2=C/c1c(Cl)n(-c2ccccc2)c2ccccc12	SR	inactive
O=c1c2cnccc2cc2c3ccccc3ccn12	SR	inactive
